Target: recombinant human NKp30 extracellular domain, his-tagged (human) (UniProt O14931)
Sequence (O14931 19-135): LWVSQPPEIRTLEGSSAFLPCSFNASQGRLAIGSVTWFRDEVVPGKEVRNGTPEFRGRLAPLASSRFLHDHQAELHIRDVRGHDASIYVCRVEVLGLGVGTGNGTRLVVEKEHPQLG
Experiment: BLI, SEEDbody on anti-human Fc sensors, soluble NKp30, 1:1 fit
Known kon of a selection of binders
Write down the numeric answer in M⁻¹ s⁻¹ and omit the unit.

{"binder": "VHH3 SEEDbody eff- (bispecific antibody, part only; not given: silenced SEED Fc and cetuximab Fab, V domains shown, not shown: another chain or arm of the molecule; a dimerising Fc or GST; small tags and cut ends) VHH: DVQLQESGGGLVQPGESLKLSCLVSGVTYHFYDITWFRQAPGLEREGVSCISYASGTTKFADSVKGRFTISRDNAKNAVYLEMNSLKPEDTAVYFCATQGSGSCSDFMSAGSVLSWGQGTQVTVSS", "kon (M⁻¹ s⁻¹)": 604000}

Now for the binder whose kon we want.
If you can, please state the reported kon value of VHH7 SEEDbody eff- (bispecific antibody, part only; not given: silenced SEED Fc and cetuximab Fab, V domains shown, not shown: another chain or arm of the molecule; a dimerising Fc or GST; small tags and cut ends) VHH: DVQLQESGGGLAQPGGSLRLSCAASGFTFSSYDMGWYRQVPGKECELVAAIFSAGGSTIYADSVKGRFTISRDNAKNTVFLQMNSLKPEDTAVYYCNKAPPFTTIQPTCVMIDTQLGAWGQGTQVTVSS .
67200
